- ASSAYED_TARGET: IgE of patient serum 2
- TEST_DESCRIPTION: ELISA inhibition, serum 2 pre-incubated with 1.25 µg/ml inhibitor; competitor: wt Bet v 1 adsorbed on wells
Provide the recorded % inhibition of Bet v 1-IgE binding for the entries that follow.
Write the value in % as a bare number.

Task: Form field: reported % inhibition of Bet v 1-IgE binding of mixture of the single wt allergens (wt Bet v 1 and wt Mal d 1) (protein) chain 1: HHHHHHGVFNYETETTSVIPAARLFKAFILDGDNLFPKVAPQAISSVENIEGNGGPGTIKKISFPEGFPFKYVKDRVDEVDHTNFKYNYSVIEGGPIGDTLEKISNEIKIVATPDGGSILKINNKYHTKGDHEVKAEQIKASKEMGETLLRAVESYLLAHSDAYN chain 2: HHHHHHGVYTFENEFTSEIPPSRLFKAFVLDADNLIPKIAPQAIKQAEILEGDGGPGTIKKITFGEGSQYGYVKHKIDSVDEANYSYAYTLIEGDALTDTIEKVSYETKLVASGSGSIIKSISHYHTKGDVEIKEEHVKAGKEKAHGLFKLIESYLKGHPDAYN
Result: 96.6

Task: Would you mind telling me what % inhibition of Bet v 1-IgE binding value was observed for mutant Bet v 1-Mal d 1 hybrid molecule (SEQ ID NO: 4) (protein) HHHHHHGVFNYETETTSVIPAARLFKAFILDGDNLFPKVAPQAISSVENIEGNGGPGTIAKISFPEGFPFKYVKDRVDEVDHTNFKYNYSVIEGGPIGDTLEKISNEIKIVATPDGGSILAINNKYHTAGDHEVKAEQIKASKEMGETLLRAVESYLLAHSDAYNEFGVYTFENEFTSEIPPSRLFKAFVLAADNLIPKIAPQAIKQAEILEGDGGPGTIKKITFGEGSQYGYVKHKIDSVDEAAYSYAYTLIEGDALTDTIEKVSYETKLVASGSGSIIKSISHYHTKGDVEIKEEHVKAGKEKAHGLFKLIESYLKGHPDAYN ?
Result: 36.4

Task: Consider the binder wild-type Bet v 1-Mal d 1 hybrid molecule (SEQ ID NO: 3) (protein) HHHHHHGVFNYETETTSVIPAARLFKAFILDGDNLFPKVAPQAISSVENIEGNGGPGTIKKISFPEGFPFKYVKDRVDEVDHTNFKYNYSVIEGGPIGDTLEKISNEIKIVATPDGGSILKINNKYHTKGDHEVKAEQIKASKEMGETLLRAVESYLLAHSDAYNEFGVYTFENEFTSEIPPSRLFKAFVLDADNLIPKIAPQAIKQAEILEGDGGPGTIKKITFGEGSQYGYVKHKIDSVDEANYSYAYTLIEGDALTDTIEKVSYETKLVASGSGSIIKSISHYHTKGDVEIKEEHVKAGKEKAHGLFKLIESYLKGHPDAYN and give its measured % inhibition of Bet v 1-IgE binding.
Result: 85.1

Task: Quick one: % inhibition of Bet v 1-IgE binding for mixture of the two mutagenised allergens (mut Bet v 1-SEQ ID NO:6 and mut Mal d 1-SEQ ID NO:2) (protein) chain 1: HHHHHHGVFNYETETTSVIPAARLFKAFILDGDNLFPKVAPQAISSVENIEGNGGPGTIAKISFPEGFPFKYVKDRVDEVDHTNFKYNYSVIEGGPIGDTLEKISNEIKIVATPDGGSILAINNKYHTAGDHEVKAEQIKASKEMGETLLRAVESYLLAHSDAYN chain 2: HHHHHHGVYTFENEFTSEIPPSRLFKAFVLAADNLIPKIAPQAIKQAEILEGDGGPGTIKKITFGEGSQYGYVKHKIDSVDEAAYSYAYTLIEGDALTDTIEKVSYETKLVASGSGSIIKSISHYHTKGDVEIKEEHVKAGKEKAHGLFKLIESYLKGHPDAYN ?
Result: 72.8
